Target under test: IadG
Assay text: ITC, IAA binding to IadG
Condition parameters: ITC, replicates
pKd: −log10 of the molar value.
Result type: pKd

(Q) Look at this molecule and give its reported pKd. O=C(O)Cc1c[nH]c2ccccc12
(A) < 4.00

---

Target under test: UniProt:A0A0H2LZB5
Sequence (A0A0H2LZB5 entry or part of it): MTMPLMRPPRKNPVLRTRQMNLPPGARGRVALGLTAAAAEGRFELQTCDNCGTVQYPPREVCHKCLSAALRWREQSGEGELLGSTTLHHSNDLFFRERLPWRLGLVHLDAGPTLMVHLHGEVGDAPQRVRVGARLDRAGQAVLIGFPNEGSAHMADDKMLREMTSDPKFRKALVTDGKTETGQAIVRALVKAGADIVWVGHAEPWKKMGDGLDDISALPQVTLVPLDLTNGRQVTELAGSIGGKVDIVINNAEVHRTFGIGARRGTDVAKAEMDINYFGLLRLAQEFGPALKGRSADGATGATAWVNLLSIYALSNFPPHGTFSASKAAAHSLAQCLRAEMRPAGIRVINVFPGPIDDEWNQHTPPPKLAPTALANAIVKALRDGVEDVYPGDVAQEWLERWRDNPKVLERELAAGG
pKd: −log10 of the molar value.
Result type: pKd

(Q) Look at this compound and give its reported pKd. O=C(O)Cc1c[nH]c2ccccc12
(A) < 4.00

---

Target under test: IadK2 (Variovorax paradoxus, UniProt T1X8R6)
Sequence (T1X8R6 entry or part of it): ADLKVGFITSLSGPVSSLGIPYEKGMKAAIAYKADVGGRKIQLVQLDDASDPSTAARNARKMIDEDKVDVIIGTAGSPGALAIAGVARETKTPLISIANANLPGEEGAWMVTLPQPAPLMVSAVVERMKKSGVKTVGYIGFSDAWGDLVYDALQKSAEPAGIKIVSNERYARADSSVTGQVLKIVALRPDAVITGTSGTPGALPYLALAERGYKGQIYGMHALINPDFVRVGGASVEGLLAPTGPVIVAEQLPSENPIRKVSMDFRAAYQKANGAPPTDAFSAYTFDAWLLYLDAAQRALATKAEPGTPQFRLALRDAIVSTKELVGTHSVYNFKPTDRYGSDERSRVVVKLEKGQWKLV
Assay text: ITC, auxins binding to IadK2
Condition parameters: ITC, single-phase isotherm, auxin analogs to IadK2; mean ± SEM; read-out: KD
Result type: Kd (µM)
Response body: numeric value in µM, unit text excluded.

INSERT INTO assay_data (compound, result_type, unit_string, observed) VALUES
  ('O=C(O)CCc1c[nH]c2ccccc12 [IPA, indole-3-propionic acid]', 'Kd', 'µM', 1.4),
  ('O=C(O)Cc1c[nH]c2cccc(Cl)c12 [4-Cl-IAA, 4-chloroindole-3-acetic acid]', 'Kd', 'µM', 15.2),
  ('O=C(O)Cc1cccc2ccccc12 [NAA, 1-naphthylacetic acid]', 'Kd', 'µM', 17);

Proceeding to the next compound to report its Kd.
(Q) // fetch IadK2 (Variovorax paradoxus, UniProt T1X8R6) Kd for O=C(O)CCCc1c[nH]c2ccccc12 [IBA, indole-3-butyric acid]
(A) 18
